// reported Ki for each item listed
Target: Sushi domains (SD1/2) protein
Assay: Fluorescence polarization (FP) competition assay with AJAP-1probe, calculated Ki
Type: binding
Conditions: Table 11, deep mutational scanning validation variants of AJAP-1WT; read-out: Ki (nM) mean ± SEM
Residues, ends and D or L forms follow the SMILES beside them.
Metric Name: Ki (nM)

CC[C@H](C)[C@H](NC(=O)[C@H](Cc1ccccc1)NC(=O)[C@H](CCC(=O)O)NC(=O)[C@@H](NC(=O)[C@H](CCC(=O)O)NC(C)=O)[C@@H](C)O)C(=O)N[C@@H](C)C(=O)N[C@@H](Cc1c[nH]c2ccccc12)C(=O)N[C@@H](Cc1ccc(O)cc1)C(=O)N1CCC[C@H]1C(=O)N[C@H](C(=O)NCC(=O)N[C@@H](CC(=O)O)C(=O)N[C@@H](CCC(=O)O)C(=O)N[C@@H](CC(=O)O)C(N)=O)[C@@H](C)O [ETEFIAWYPTGDED] (Ac-ETEFIAWYPTGDED-NH2): 199
CC[C@H](C)[C@H](NC(=O)[C@H](Cc1ccccc1)NC(=O)[C@H](CCC(=O)O)NC(=O)[C@@H](NC(=O)[C@H](CCC(=O)O)NC(C)=O)[C@@H](C)O)C(=O)N[C@@H](C)C(=O)N[C@@H](Cc1c[nH]c2ccccc12)C(=O)NCC(=O)N1CCC[C@H]1C(=O)N[C@H](C(=O)NCC(=O)N[C@@H](CC(=O)O)C(=O)N[C@@H](CCC(=O)O)C(=O)N[C@@H](Cc1c[nH]cn1)C(N)=O)[C@@H](C)O: 39
CC[C@H](C)[C@H](NC(=O)[C@H](Cc1ccccc1)NC(=O)[C@H](CCC(=O)O)NC(=O)[C@@H](NC(=O)[C@H](CCC(=O)O)NC(C)=O)[C@@H](C)O)C(=O)N[C@@H](C)C(=O)N[C@@H](Cc1c[nH]c2ccccc12)C(=O)NCC(=O)N1CCC[C@H]1C(=O)N[C@H](C(=O)NCC(=O)N[C@@H](CC(=O)O)C(=O)N[C@@H](CCC(=O)O)C(=O)N[C@@H](CC(N)=O)C(N)=O)[C@@H](C)O (Ac-ETEFIAWGPTGDEN-NH2): 43

###

Target: Sushi domains (SD1/2) protein
Test: Fluorescence polarization (FP) competition assay with AJAP-1probe, calculated Ki
Type: binding
Details: Table 5, elongation and truncation scan of AJAP-1 binding epitope; read-out: Ki (nM) mean ± SEM
Residues, ends and D or L forms follow the SMILES beside them.
Exam item: assign satisfied to entries whose Ki is below 100 nM and not satisfied to entries at or above 100 nM. Note that a value of exactly 100 nM receives not satisfied.

CC[C@H](C)[C@H](NC(=O)[C@H](Cc1ccccc1)NC(=O)[C@H](CCC(=O)O)NC(=O)[C@@H](NC(=O)[C@H](CCC(=O)O)NC(=O)[C@@H](NC(C)=O)[C@@H](C)O)[C@@H](C)O)C(=O)N[C@@H](C)C(=O)N[C@@H](Cc1c[nH]c2ccccc12)C(=O)NCC(=O)N1CCC[C@H]1C(=O)N[C@H](C(=O)NCC(N)=O)[C@@H](C)O (Ac-TETEFIAWGPTG-NH2): not satisfied
CC[C@H](C)[C@H](NC(=O)[C@H](Cc1ccccc1)NC(=O)[C@H](CCC(=O)O)NC(C)=O)C(=O)N[C@@H](C)C(=O)N[C@@H](Cc1c[nH]c2ccccc12)C(=O)NCC(=O)N1CCC[C@H]1C(=O)N[C@H](C(=O)NCC(=O)N[C@@H](CC(=O)O)C(=O)N[C@@H](CCC(=O)O)C(=O)N[C@@H](CC(=O)O)C(N)=O)[C@@H](C)O [EFIAWGPTGDED] (Ac-EFIAWGPTGDED-NH2): not satisfied
CC[C@H](C)[C@H](NC(=O)[C@H](Cc1ccccc1)NC(=O)[C@H](CCC(=O)O)NC(=O)[C@@H](NC(=O)[C@H](CCC(=O)O)NC(=O)[C@@H](NC(C)=O)[C@@H](C)O)[C@@H](C)O)C(=O)N[C@@H](C)C(=O)N[C@@H](Cc1c[nH]c2ccccc12)C(=O)NCC(=O)N1CCC[C@H]1C(N)=O (Ac-TETEFIAWGP-NH2): not satisfied
CC[C@H](C)[C@H](NC(=O)[C@H](Cc1ccccc1)NC(=O)[C@H](CCC(=O)O)NC(=O)[C@@H](NC(=O)[C@H](CCC(=O)O)NC(=O)[C@@H](NC(C)=O)[C@@H](C)O)[C@@H](C)O)C(=O)N[C@@H](C)C(=O)N[C@@H](Cc1c[nH]c2ccccc12)C(=O)NCC(=O)N1CCC[C@H]1C(=O)N[C@H](C(=O)NCC(=O)N[C@@H](CC(=O)O)C(=O)N[C@@H](CCC(=O)O)C(=O)N[C@@H](CC(=O)O)C(N)=O)[C@@H](C)O [Peptide 15, Ac-TETEFIAWGPTGDED-NH2] (Ac-TETEFIAWGPTGDED-NH2): satisfied
CC(=O)N[C@@H](C)C(=O)N[C@@H](Cc1c[nH]c2ccccc12)C(=O)NCC(=O)N1CCC[C@H]1C(=O)N[C@H](C(=O)NCC(=O)N[C@@H](CC(=O)O)C(=O)N[C@@H](CCC(=O)O)C(=O)N[C@@H](CC(=O)O)C(N)=O)[C@@H](C)O [AWGPTGDED] (Ac-AWGPTGDED-NH2): not satisfied

###

Biological target: Sushi domains (SD1/2) protein
Assay: Fluorescence polarization (FP) competition assay with AJAP-1probe, calculated Ki
Format: binding
Conditions: Table 11, deep mutational scanning validation variants of AJAP-1WT; read-out: Ki (nM) mean ± SEM
Residues, ends and D or L forms follow the SMILES beside them.
Metric Name: Ki

CC[C@H](C)[C@H](NC(=O)[C@H](Cc1ccccc1)NC(=O)[C@H](CCC(=O)O)NC(=O)[C@@H](NC(=O)[C@H](CCC(=O)O)NC(C)=O)[C@@H](C)O)C(=O)N[C@@H](C)C(=O)N[C@@H](Cc1c[nH]c2ccccc12)C(=O)NCC(=O)N1CCC[C@H]1C(=O)N[C@H](C(=O)N[C@@H](Cc1c[nH]cn1)C(=O)N[C@@H](CC(=O)O)C(=O)N[C@@H](CCC(=O)O)C(=O)N[C@@H](CC(=O)O)C(N)=O)[C@@H](C)O [ETEFIAWGPTHDED] (Ac-ETEFIAWGPTHDED-NH2): 30 nM
CC[C@H](C)[C@H](NC(=O)[C@H](Cc1ccccc1)NC(=O)[C@H](CCC(=O)O)NC(=O)[C@@H](NC(=O)[C@H](CCC(=O)O)NC(C)=O)[C@@H](C)O)C(=O)N[C@@H](C)C(=O)N[C@@H](Cc1c[nH]c2ccccc12)C(=O)NCC(=O)N1CCC[C@H]1C(=O)N[C@H](C(=O)NCC(=O)N[C@@H](CC(=O)O)C(=O)N[C@@H](Cc1ccc(O)cc1)C(=O)N[C@@H](CC(=O)O)C(N)=O)[C@@H](C)O (Ac-ETEFIAWGPTGDYD-NH2): 40 nM
CC[C@H](C)[C@H](NC(=O)[C@H](Cc1ccccc1)NC(=O)[C@H](CCC(=O)O)NC(=O)[C@@H](NC(=O)[C@@H](NC(C)=O)C(C)C)[C@@H](C)O)C(=O)N[C@@H](C)C(=O)N[C@@H](Cc1c[nH]c2ccccc12)C(=O)NCC(=O)N1CCC[C@H]1C(=O)N[C@H](C(=O)NCC(=O)N[C@@H](CC(=O)O)C(=O)N[C@@H](CCC(=O)O)C(=O)N[C@@H](CC(=O)O)C(N)=O)[C@@H](C)O: 67 nM
CC[C@H](C)[C@H](NC(=O)[C@H](Cc1ccccc1)NC(=O)[C@H](CCC(=O)O)NC(=O)[C@@H](NC(=O)[C@H](CCC(=O)O)NC(C)=O)[C@@H](C)O)C(=O)N[C@@H](CC(=O)O)C(=O)N[C@@H](Cc1c[nH]c2ccccc12)C(=O)NCC(=O)N1CCC[C@H]1C(=O)N[C@H](C(=O)NCC(=O)N[C@@H](CC(=O)O)C(=O)N[C@@H](CCC(=O)O)C(=O)N[C@@H](CC(=O)O)C(N)=O)[C@@H](C)O [Peptide 26, Ac-ETEFIDWGPTGDED-NH2] (Ac-ETEFIDWGPTGDED-NH2): 9 nM

###

Molecular target: Sushi domains (SD1/2) protein
Assay: Fluorescence polarization (FP) competition assay with AJAP-1probe, calculated Ki
Type: binding
Conditions: Table 11, deep mutational scanning validation variants of AJAP-1WT; read-out: Ki (nM) mean ± SEM
Residues, ends and D or L forms follow the SMILES beside them.
// reported Ki for each item listed
Metric Name: Ki (nM)

CC[C@H](C)[C@H](NC(=O)[C@H](Cc1ccccc1)NC(=O)[C@H](CCC(=O)O)NC(=O)[C@@H](NC(=O)[C@H](CCC(=O)O)NC(C)=O)[C@@H](C)O)C(=O)N[C@@H](C)C(=O)N[C@@H](Cc1c[nH]c2ccccc12)C(=O)NCC(=O)N1CCC[C@H]1C(=O)N[C@H](C(=O)NCC(=O)N[C@@H](Cc1c[nH]cn1)C(=O)N[C@@H](CCC(=O)O)C(=O)N[C@@H](CC(=O)O)C(N)=O)[C@@H](C)O [ETEFIAWGPTGHED] (Ac-ETEFIAWGPTGHED-NH2): 60
CC[C@H](C)[C@H](NC(=O)[C@H](Cc1ccccc1)NC(=O)[C@H](CCC(=O)O)NC(=O)[C@@H](NC(=O)[C@H](CCC(=O)O)NC(C)=O)[C@@H](C)O)C(=O)N[C@@H](C)C(=O)N[C@@H](Cc1c[nH]c2ccccc12)C(=O)NCC(=O)N1CCC[C@H]1C(=O)N[C@H](C(=O)NCC(=O)N[C@@H](CC(=O)O)C(=O)N[C@@H](CC(=O)O)C(=O)N[C@@H](CC(=O)O)C(N)=O)[C@@H](C)O (Ac-ETEFIAWGPTGDDD-NH2): 27
CC[C@H](C)[C@H](NC(=O)[C@H](Cc1ccccc1)NC(=O)[C@H](CCC(=O)O)NC(=O)[C@@H](NC(=O)[C@H](CCC(=O)O)NC(C)=O)[C@@H](C)O)C(=O)N[C@@H](C)C(=O)N[C@@H](Cc1c[nH]c2ccccc12)C(=O)NCC(=O)N1CCC[C@H]1C(=O)N[C@H](C(=O)NCC(=O)N[C@@H](CC(=O)O)C(=O)N[C@@H](CCC(=O)O)C(=O)N[C@@H](CCC(N)=O)C(N)=O)[C@@H](C)O (Ac-ETEFIAWGPTGDEQ-NH2): 37

The values you see were collected from patent US20260193293A1.
